Assay: DUSP6 inhibitors restoring Erk phosphorylation by chemical complementation, primary imaging in DUSP6-transfected HeLa (AID 609)
Details: HeLa MKP-3 transfected, phospho-Erk imaging KS statistic; measured here: cell density z-score; at 10 µM; cells stimulated with TPA for 15 min
Category key, based on recorded z-score: A (below -0.5), B (-0.5 to below 0.1), C (0.1 or more)

Q: Categorize the following entry: CC(NC(=O)CSc1nnc(COc2ccccc2)o1)c1ccccc1 (configuration not stated)
Ans: A

Q: Categorize the following entry: O=C1c2ccccc2C(=O)N1CC1c2ccccc2CCN1C(=O)N1CCOCC1 (configuration not stated)
Ans: C

Q: Categorize the following entry: "Oc1ccc2ccccc2c1C=NC12CN3CCN(CN(C3)C1)C2"
Ans: B

Q: Categorize the following entry: CCN(CC)CCN1C(=O)c2ccccc2NC1c1cc(OC)c(OC)c(OC)c1 (configuration not stated)
Ans: B

Q: Categorize the following entry: "CC(C)c1nc(NCCN2CCOCC2)c(C#N)c2c1COC(C)(C)C2"
Ans: A

Q: Categorize the following entry: "COCCNc1nc2c(c(=O)n(C)c(=O)n2C)n1Cc1cccc(C(F)(F)F)c1"
Ans: C

Q: Categorize the following entry: N#CC(C#N)C(c1ccsc1)c1c(-c2ccccc2)[nH][nH]c1=O (configuration not stated)
Ans: C

Q: Categorize the following entry: "Cc1c(=O)n(OCc2c(F)cccc2F)c2ccccc2[n+]1[O-]"
Ans: B

Q: Categorize the following entry: Cc1ccccc1COc1ccc(/C(O)=C2/C(=O)C(=O)N(CCCn3ccnc3)C2c2ccco2)cc1 (configuration not stated)
Ans: A

Q: Categorize the following entry: Cc1cc(NC(CC(C)C)C(=O)O)nc(Cc2ccccc2)n1 (configuration not stated)
Ans: B

Q: Categorize the following entry: "O=C(Nc1ccccc1)c1cc(N2CCOCC2)nc2ccccc12"
Ans: C

Q: Categorize the following entry: "CC(C)COc1ccc(C(=O)OCCN2CCOCC2)c(O)c1"
Ans: C

Q: Categorize the following entry: O=C1C(=O)N(Cc2cccnc2)C(c2ccccn2)/C1=C(/O)c1ccccc1 (configuration not stated)
Ans: A

Q: Categorize the following entry: "CCOC(=O)c1[nH]c2ccccc2c1N=C(C)N(CC)CC"
Ans: A

Q: Categorize the following entry: "C=CCNc1nc(N2CCCCC2)c(C#N)c2c1CN(Cc1ccccc1)CC2"
Ans: C

Q: Categorize the following entry: "O=C(NCCCN1CCOCC1)C1(c2ccccc2)CCOCC1"
Ans: B

Q: Categorize the following entry: "Cc1ccc(-n2ncc3c(NCc4ccc5c(c4)OCO5)ncnc32)c(C)c1"
Ans: A

###

Please provide measured z-score for the entries that follow.
Assay: DUSP6 inhibitors restoring Erk phosphorylation by chemical complementation, primary imaging in DUSP6-transfected HeLa (AID 609)
Conditions: HeLa MKP-3 transfected, phospho-Erk imaging KS statistic; measured here: nuclear c-Myc green intensity z-score; at 10 µM; cells stimulated with TPA for 15 min
Keep the answer to the number alone.

Q: GET /values?readout=z-score&item= "CN(CCCCCC(=O)/C=N/O)Cc1ccccc1"
Ans: -0.553

Q: GET /values?readout=z-score&item= "Clc1ccc(-n2ncc3c(NCc4ccccn4)ncnc32)cc1"
Ans: 2.08

Q: GET /values?readout=z-score&item= CC(=O)C1=C(O)C(=O)N(c2ccc(S(N)(=O)=O)cc2)C1c1ccccc1F (stereo not given)
Ans: -1.6

Q: GET /values?readout=z-score&item= "CC(C)Sc1nnc2n(CCc3ccccc3)c(=O)c3c4c(sc3n12)COC(C)(C)C4"
Ans: -0.0361

Q: GET /values?readout=z-score&item= "NC(=O)/C(=N\O)c1ccccc1"
Ans: -0.324
